target: hTRPM8 (Homo sapiens, UniProt Q7Z2W7); construct: expressed in transfected cells; assay: Assay on TRPM8 modulators: calcium imaging (Fluo-4, Flexstation) in HEK293 cell line stably expressing hTRPM8; type: cell-based; conditions: HEK293 cells stably expressing hTRPM8, calcium influx, sigmoidal dose-response fit; read-out: EC50
Sequence (Q7Z2W7 whole entry): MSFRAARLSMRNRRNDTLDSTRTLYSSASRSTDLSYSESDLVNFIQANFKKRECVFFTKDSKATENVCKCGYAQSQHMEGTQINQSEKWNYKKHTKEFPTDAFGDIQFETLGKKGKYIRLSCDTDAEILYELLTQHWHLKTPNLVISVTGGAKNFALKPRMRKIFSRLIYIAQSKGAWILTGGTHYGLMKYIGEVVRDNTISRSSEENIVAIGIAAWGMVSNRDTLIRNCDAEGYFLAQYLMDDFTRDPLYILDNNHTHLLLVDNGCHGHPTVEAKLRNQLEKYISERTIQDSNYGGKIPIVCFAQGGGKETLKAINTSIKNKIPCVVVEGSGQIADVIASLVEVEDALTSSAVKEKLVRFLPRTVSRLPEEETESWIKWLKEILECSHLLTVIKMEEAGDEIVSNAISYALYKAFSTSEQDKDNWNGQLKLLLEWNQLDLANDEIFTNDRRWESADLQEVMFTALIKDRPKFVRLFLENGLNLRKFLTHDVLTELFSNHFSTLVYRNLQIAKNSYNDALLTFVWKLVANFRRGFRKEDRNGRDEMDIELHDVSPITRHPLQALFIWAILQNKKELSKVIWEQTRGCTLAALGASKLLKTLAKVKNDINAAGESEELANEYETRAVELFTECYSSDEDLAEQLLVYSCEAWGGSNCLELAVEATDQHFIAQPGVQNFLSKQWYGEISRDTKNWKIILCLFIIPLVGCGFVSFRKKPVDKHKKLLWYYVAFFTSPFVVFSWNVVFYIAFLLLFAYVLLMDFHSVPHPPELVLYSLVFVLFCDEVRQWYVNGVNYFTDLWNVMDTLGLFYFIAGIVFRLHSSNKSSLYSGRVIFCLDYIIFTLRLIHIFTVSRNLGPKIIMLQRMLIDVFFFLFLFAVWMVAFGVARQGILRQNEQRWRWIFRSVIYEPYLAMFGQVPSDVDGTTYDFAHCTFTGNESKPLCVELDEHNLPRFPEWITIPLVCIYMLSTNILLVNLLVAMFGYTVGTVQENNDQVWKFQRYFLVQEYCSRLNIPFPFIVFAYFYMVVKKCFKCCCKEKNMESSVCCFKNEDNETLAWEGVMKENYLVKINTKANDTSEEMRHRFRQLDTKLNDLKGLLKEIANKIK
pEC50: −log10 of the molar value.
outcome measure: pEC50

Recorded pEC50, per entry:
compound	pEC50
CC(C)CC[C@@]1(C)C[C@@H]2[C@@H]([C@@H](C)C1)N(C(C)C)OC2(C)C (racemic)	6.52 to 7.30
Cc1cc(F)ccc1[C@]1(C)C[C@@H](C)[C@@H]2[C@@H](C1)C(C)(C)ON2C (racemic)	4.46 to 6.00
CCC1CC(CC)[C@@H]2[C@@H](C1)C(C)(C)ON2CC (mixture of isomers)	4.46 to 6.00

pEC50 reported for this compound Cc1c(C#N)cccc1C1(C)CC(C)C2C(C1)C(C)(C)ON2C (stereo not shown) : 6.00 to 6.52

----------
test system: panelists (mouth, mucosa); test: Sensory studies in aqueous solution (trained panel, swilling in the mouth); format: in vivo, human; settings: 40 ppm in aqueous solution, 20 mL swilled 60 seconds
outcome measure: time of max cooling (min)
Numeric only. Scale: min

Recorded time of max cooling, per entry:
compound	readout value
CC1CC(C)C2C(C1)C(C)(C)ON2C (centres unmarked) [Compound 4]	3
Cc1ccc(C#N)cc1[C@@]1(C)C[C@@H]2[C@@H]([C@@H](C)C1)N(C)OC2(C)C (stereo in doubt) [Compound 135]	10
CC[C@@H]1C[C@H](CC)[C@@H]2[C@@H](C1)C(C)(C)ON2C(C)C (racemic) [Compound 111]	10
CCN1OC(C)(C)C2CC(CC=C(C)C)CC(C)C21 (racemic) [Compound 120]	10
CCN1OC(C)(C)C2CC(C)(CC=C(C)C)CC(C)C21 (centres unmarked) [Compound 9]	10
C[C@H]1C[C@@](C)(c2cc(F)cc(F)c2)C[C@@H]2[C@@H]1N(C)OC2(C)C (racemic) [Compound 85]	10

time of max cooling reported for this compound Cc1ccccc1[C@@]1(C)C[C@@H]2[C@@H]([C@@H](C)C1)N(C)OC2(C)C (racemic) [Compound 46] : 10

time of max cooling reported for this compound COc1ccccc1[C@H]1C[C@@H]2[C@@H]([C@@H](C)C1)N(C(C)C)OC2(C)C (racemic) [Compound 66] : 20

----------
molecular target: hTRPM8 (Homo sapiens, UniProt Q7Z2W7); construct: expressed in transfected cells; assay: Assay on TRPM8 modulators: calcium imaging (Fluo-4, Flexstation) in HEK293 cell line stably expressing hTRPM8; assay type: cell-based; conditions: HEK293 cells stably expressing hTRPM8, calcium influx, sigmoidal dose-response fit; read-out: EC50
outcome measure: EC50

Recorded EC50, per entry:
molecule	EC50
Cc1ccc(C#N)cc1[C@@]1(C)C[C@@H](C)[C@H]2[C@H](C1)C(C)(C)ON2C (stereo in doubt)	50 to 300 nM
CCC[C@@]1(C)C[C@@H]2[C@@H]([C@@H](C)C1)N(C(C)C)OC2(C)C (racemic)	1000 to 35000 nM
C[C@H]1C[C@@](C)(c2ccoc2)C[C@@H]2[C@@H]1N(C)OC2(C)C (racemic)	300 to 1000 nM

EC50 reported for this molecule CSc1ccc([C@@]2(C)C[C@@H]3[C@@H]([C@@H](C)C2)N(C)OC3(C)C)cc1 (racemic) : 50 to 300 nM

EC50 reported for this molecule Cc1ccc(C#N)cc1[C@@]1(C)C[C@@H]2[C@@H]([C@@H](C)C1)N(C)OC2(C)C (stereo in doubt) [Compound 135] : < 50 nM

EC50 reported for this molecule CC1CC(C)C2C(C1)C1(CCCC1)ON2C (stereo not drawn) : 1000 to 35000 nM

EC50 reported for this molecule CC1CCC2C(C1)N(C)OC2(C)C (stereo not drawn) : 1000 to 35000 nM

EC50 reported for this molecule Cc1ccccc1[C@@]1(C)C[C@@H]2[C@@H]([C@@H](C)C1)N(C)OC2(C)C (racemic) : < 50 nM

----------
target: hTRPM8 (Homo sapiens); construct: expressed in transfected cells; test: Assay on TRPM8 modulators: calcium imaging (Fluo-4, Flexstation) in HEK293 cell line stably expressing hTRPM8; format: cell-based; details: HEK293 cells stably expressing hTRPM8, calcium influx, sigmoidal dose-response fit; read-out: EC50
Recorded EC50 values for a group of compounds are listed next.

compound	tested on	outcome measure	readout value
Cc1ccc([C@@]2(C)C[C@@H]3[C@@H]([C@@H](C)C2)N(C)OC3(C)C)s1 (racemic)	hTRPM8 (Homo sapiens)	EC50	300 to 1000 nM
CCN1OC(C)(C)[C@@H]2C[C@H](C)C[C@H](C)[C@H]21 (racemic)	hTRPM8 (Homo sapiens)	EC50	1000 to 35000 nM
COc1ccc(OC)c(C2(C)CC(C)C3C(C2)C(C)(C)ON3C)c1 (stereo not shown)	hTRPM8 (Homo sapiens)	EC50	50 to 300 nM

Next, consider the following compound.
Entry C[C@H]1C[C@@](C)(c2cccc(C#N)c2)C[C@@H]2[C@@H]1N(C)OC2(C)C (racemic) under hTRPM8 (Homo sapiens) had EC50 of < 50 nM

----------
target: hTRPM8 (Homo sapiens, UniProt Q7Z2W7); construct: expressed in transfected cells; experiment: Assay on TRPM8 modulators: calcium imaging (Fluo-4, Flexstation) in HEK293 cell line stably expressing hTRPM8; format: cell-based; conditions: HEK293 cells stably expressing hTRPM8, calcium influx, sigmoidal dose-response fit; read-out: EC50
outcome measure: EC50

molecule	readout value
C[C@H]1C[C@@](C)(c2cc(F)ccc2F)C[C@@H]2[C@@H]1N(C)OC2(C)C (racemic)	50 to 300 nM
Cc1ccc(Cl)cc1[C@@]1(C)C[C@@H]2[C@@H]([C@@H](C)C1)N(C)OC2(C)C (racemic)	< 50 nM
CCN1OC(C)(C)[C@@H]2C[C@](C)(c3ccccc3)C[C@H](C)[C@H]21 (racemic)	50 to 300 nM
CC(C)N1OC(C)(C)[C@@H]2C[C@](C)(c3ccc(F)cc3)C[C@H](C)[C@H]21 (racemic)	< 50 nM
CC(C)CCC1CC(C)C2C(C1)C(C)(C)OC(=O)N2C (stereo not shown)	1000 to 35000 nM

Entry CC[C@@H]1CC[C@@H]2[C@@H](C1)C(C)(C)ON2C(C)C (racemic) under hTRPM8 (Homo sapiens, UniProt Q7Z2W7) had EC50 of 1000 to 35000 nM

Entry Cc1cccc([C@@]2(C)C[C@@H]3[C@@H]([C@@H](C)C2)N(C)OC3(C)C)c1 (racemic) under hTRPM8 (Homo sapiens, UniProt Q7Z2W7) had EC50 of 50 to 300 nM

----------
Recorded pEC50 values for a group of compounds are listed next.
target: hTRPM8 (Homo sapiens, UniProt Q7Z2W7); construct: expressed in transfected cells; assay: Assay on TRPM8 modulators: calcium imaging (Fluo-4, Flexstation) in HEK293 cell line stably expressing hTRPM8; format: cell-based; details: HEK293 cells stably expressing hTRPM8, calcium influx, sigmoidal dose-response fit; read-out: EC50
pEC50: −log10 of the molar value.

Recorded pEC50, per entry:
compound	outcome measure	readout value
COc1ccc(C#N)cc1[C@@]1(C)C[C@@H]2[C@@H]([C@@H](C)C1)N(C)OC2(C)C (racemic)	pEC50	> 7.30
Cc1cc(F)ccc1[C@H]1C[C@@H]2[C@@H]([C@@H](C)C1)N(C)OC2(C)C (racemic)	pEC50	6.52 to 7.30
COc1ccccc1[C@@]1(C)C[C@@H]2[C@@H]([C@@H](C)C1)N(C)OC2(C)C (racemic)	pEC50	6.52 to 7.30

Entry CCN1OC(C)(C)[C@@H]2C[C@](C)(c3cc(C#N)ccc3C)C[C@H](C)[C@H]21 (racemic) under hTRPM8 (Homo sapiens, UniProt Q7Z2W7) had pEC50 of > 7.30

Entry Cc1cc(C#N)ccc1[C@@]1(C)C[C@@H]2[C@@H]([C@@H](C)C1)N(C)OC2(C)C (racemic) under hTRPM8 (Homo sapiens, UniProt Q7Z2W7) had pEC50 of 6.52 to 7.30

Entry CCc1ccccc1[C@H]1C[C@@H]2[C@@H]([C@@H](C)C1)N(C)OC2(C)C (racemic) under hTRPM8 (Homo sapiens, UniProt Q7Z2W7) had pEC50 of 4.46 to 6.00

----------
biological target: hTRPM8 (Homo sapiens, UniProt Q7Z2W7); construct: expressed in transfected cells; assay: Assay on TRPM8 modulators: calcium imaging (Fluo-4, Flexstation) in HEK293 cell line stably expressing hTRPM8; type: cell-based; details: HEK293 cells stably expressing hTRPM8, calcium influx, sigmoidal dose-response fit; read-out: EC50
outcome measure: EC50

Recorded EC50, per entry:
molecule	outcome measure	readout value
CC(C)=CCC1(C)CC(C)C2C(C1)C(C)(C)ON2C (stereo not drawn)	EC50	300 to 1000 nM
CC(C)=CC[C@@]1(C)C[C@@H]2[C@@H]([C@@H](C)C1)N(C(C)C)OC2(C)C (racemic)	EC50	50 to 300 nM
COc1ccc(C#N)cc1[C@]1(C)C[C@@H](C)[C@@H]2[C@@H](C1)C(C)(C)ON2C (racemic)	EC50	300 to 1000 nM
Cc1ccccc1[C@H]1C[C@@H]2[C@@H]([C@@H](C)C1)N(C)OC2(C)C (racemic)	EC50	300 to 1000 nM
CCC[C@@H]1CC[C@@H]2[C@@H](C1)C(C)(C)ON2C(C)C (racemic)	EC50	300 to 1000 nM
CC(C)=CC[C@H]1C[C@@H]2[C@@H]([C@@H](C)C1)N(C(C)C)OC2(C)C (racemic)	EC50	300 to 1000 nM

Next, consider the following molecule.
EC50 reported for this molecule CCOc1ccccc1[C@@]1(C)C[C@@H]2[C@@H]([C@@H](C)C1)N(C)OC2(C)C (racemic) : 300 to 1000 nM

meta.source: patent US20230002334A1
